# TARGET_OR_SYSTEM: Protein deacetylase HDAC6 (Homo sapiens, UniProt Q9UBN7)
# Sequence (Q9UBN7 whole entry): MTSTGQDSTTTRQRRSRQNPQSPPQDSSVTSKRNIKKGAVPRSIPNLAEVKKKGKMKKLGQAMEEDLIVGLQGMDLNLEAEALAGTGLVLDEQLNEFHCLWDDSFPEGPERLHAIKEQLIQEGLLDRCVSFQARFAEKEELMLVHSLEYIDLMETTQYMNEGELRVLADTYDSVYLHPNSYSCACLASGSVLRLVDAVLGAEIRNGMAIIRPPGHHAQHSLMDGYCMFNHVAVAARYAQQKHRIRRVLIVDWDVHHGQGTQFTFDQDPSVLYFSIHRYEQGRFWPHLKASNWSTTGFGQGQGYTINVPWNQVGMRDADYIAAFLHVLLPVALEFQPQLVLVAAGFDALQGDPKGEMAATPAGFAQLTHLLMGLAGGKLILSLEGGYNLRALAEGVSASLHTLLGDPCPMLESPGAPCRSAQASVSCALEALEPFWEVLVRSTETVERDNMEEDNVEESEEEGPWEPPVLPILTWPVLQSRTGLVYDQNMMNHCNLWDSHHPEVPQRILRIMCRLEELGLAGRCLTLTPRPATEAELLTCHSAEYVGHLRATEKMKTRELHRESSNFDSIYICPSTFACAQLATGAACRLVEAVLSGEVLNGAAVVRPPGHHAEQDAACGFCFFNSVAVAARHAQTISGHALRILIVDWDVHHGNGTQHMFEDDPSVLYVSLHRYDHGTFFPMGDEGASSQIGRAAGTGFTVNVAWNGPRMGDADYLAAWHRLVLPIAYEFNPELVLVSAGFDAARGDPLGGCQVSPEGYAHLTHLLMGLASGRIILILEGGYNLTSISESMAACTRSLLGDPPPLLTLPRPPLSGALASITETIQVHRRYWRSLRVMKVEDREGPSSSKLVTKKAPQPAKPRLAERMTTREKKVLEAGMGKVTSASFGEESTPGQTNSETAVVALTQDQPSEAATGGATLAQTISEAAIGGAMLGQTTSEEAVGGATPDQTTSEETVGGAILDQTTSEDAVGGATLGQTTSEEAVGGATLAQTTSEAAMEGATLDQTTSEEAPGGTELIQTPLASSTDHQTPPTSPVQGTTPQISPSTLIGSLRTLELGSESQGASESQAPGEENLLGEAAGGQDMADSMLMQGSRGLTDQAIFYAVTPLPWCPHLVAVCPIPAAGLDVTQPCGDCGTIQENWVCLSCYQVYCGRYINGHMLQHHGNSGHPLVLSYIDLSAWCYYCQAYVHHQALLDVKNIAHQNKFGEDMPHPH
# ASSAY_NOTES: Inhibition of recombinant human full length N-terminal GST-tagged HDAC6 expressed in Sf9 insect cells using Fluor de Lys deacetylase or Fluor de Lys Green deacetylase substrate by fluorescent microplate reader assay
QUANTITY_MEASURED: IC50 (nM)

- CCN(CC)Cc1ccc2cc(COC(=O)Nc3c(F)cc(C(=O)NO)cc3F)ccc2c1: 10

a: Nc1ccc(C(=O)NO)cc1F
b: O=C(NO)c1cccc(F)c1
Consider entries a and b . Which has the numerically lower IC50? Identify your pick by its label.
a
